Each entry below carries its reported Kd.
STUDY_TARGET: T1, Arabidopsis thaliana HAESA ectodomain (residues 20–620) (Arabidopsis thaliana, UniProt P47735 20-620, N-glycans (glycoprotein of ~75 kDa))
T1 chain: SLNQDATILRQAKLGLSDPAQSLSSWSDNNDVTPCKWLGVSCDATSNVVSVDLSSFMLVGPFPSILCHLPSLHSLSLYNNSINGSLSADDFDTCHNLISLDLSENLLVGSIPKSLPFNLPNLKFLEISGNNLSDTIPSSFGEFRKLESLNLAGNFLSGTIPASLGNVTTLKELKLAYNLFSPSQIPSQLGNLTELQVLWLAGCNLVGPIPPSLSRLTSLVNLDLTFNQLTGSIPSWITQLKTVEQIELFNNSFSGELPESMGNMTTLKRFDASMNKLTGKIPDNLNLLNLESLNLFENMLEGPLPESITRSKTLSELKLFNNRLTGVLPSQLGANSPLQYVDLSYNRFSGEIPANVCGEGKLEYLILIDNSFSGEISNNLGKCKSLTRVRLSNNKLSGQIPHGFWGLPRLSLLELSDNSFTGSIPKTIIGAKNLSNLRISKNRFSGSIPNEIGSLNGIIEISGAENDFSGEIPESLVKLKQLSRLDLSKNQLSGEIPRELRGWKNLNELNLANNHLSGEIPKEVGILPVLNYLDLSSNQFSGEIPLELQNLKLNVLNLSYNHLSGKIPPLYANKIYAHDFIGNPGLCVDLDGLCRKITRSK
ASSAY_TEXT: ITC
Non-standard residues stand in square brackets, D forms with d. No end group written: not given here. Hyp = O=C(O)[C@@H]1C[C@@H](O)CN1

>>> endpoint_result("YLVPPSG[Hyp]SMRHN [synthetic IDL1 peptide YLVPPSG-Hyp-SMRHN (ITC)]")
"135 µM"

# next binder below
Problem: May I ask what Kd has been recorded for YPKGVPIPPSA[Hyp]SKRHN (N-terminal Tyr; INFLORESCENCE DEFICIENT IN ABSCISSION (IDA), Arabidopsis thaliana; Hyp written as P; also called N-terminally extended IDA peptide; source: synthetic peptide) [synthetic PKGV-IDA peptide YPKGVPIPPSA-Hyp-SKRHN] ?
Solution: 25 µM
